assayed-target: T1, APRIL (Acro Biosystems, Cat: APL-H52D1) (UniProt O75888 115-250, limits assumed)
T1 construct: also called ARPIL; A proliferation-inducing ligand
T1 sequence (looked up): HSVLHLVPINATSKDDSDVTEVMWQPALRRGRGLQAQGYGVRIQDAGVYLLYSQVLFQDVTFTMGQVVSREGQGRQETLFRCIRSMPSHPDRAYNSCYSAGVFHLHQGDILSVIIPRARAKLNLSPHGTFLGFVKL
protocol-notes: ELISA, APRIL coated, anti-human Fc-HRP, OD450
experimental-readout: Emax (nM)
Provide the reading as a plain figure in nM.

// query Form field: reported Emax of Telitacicept (RCT-18) (Fc fusion, Positive control, TACI-Fc) SRVDQEERFPQGLWTGVAMRSCPEEQYWDPLLGTCMSCKTICNHQSQRTCAAFCRSLSCRKEQGKFYDHLLRDCISCASICGQHPKQCAYFCENKLRSPVNLPPELDKTHTCPPCPAPEAEGAPSVFLFPPKPKDTLMISRTPEVTCVVVDVSHEDPEVKFNWYVDGVEVHNAKTKPREEQYNSTYRVVSVLTVLHQDWLNGKEYKCKVSNKALPSSIEKTISKAKGQPREPQVYTLPPSRDELTKNQVSLTCLVKGFYPSDIAVEWESNGQPENNYKTTPPVLDSDGSFFLYSKLTVDKSRWQQGNVFSCSVMHEALHNHYTQKSLSLSPGK
// result 2.62
